These measurements were taken from paper PMC12344758.

- TARGET_OR_SYSTEM: MAO-A (Homo sapiens)
- Construct: purchased Merck MAK295
- Sequence (P21397 1-527): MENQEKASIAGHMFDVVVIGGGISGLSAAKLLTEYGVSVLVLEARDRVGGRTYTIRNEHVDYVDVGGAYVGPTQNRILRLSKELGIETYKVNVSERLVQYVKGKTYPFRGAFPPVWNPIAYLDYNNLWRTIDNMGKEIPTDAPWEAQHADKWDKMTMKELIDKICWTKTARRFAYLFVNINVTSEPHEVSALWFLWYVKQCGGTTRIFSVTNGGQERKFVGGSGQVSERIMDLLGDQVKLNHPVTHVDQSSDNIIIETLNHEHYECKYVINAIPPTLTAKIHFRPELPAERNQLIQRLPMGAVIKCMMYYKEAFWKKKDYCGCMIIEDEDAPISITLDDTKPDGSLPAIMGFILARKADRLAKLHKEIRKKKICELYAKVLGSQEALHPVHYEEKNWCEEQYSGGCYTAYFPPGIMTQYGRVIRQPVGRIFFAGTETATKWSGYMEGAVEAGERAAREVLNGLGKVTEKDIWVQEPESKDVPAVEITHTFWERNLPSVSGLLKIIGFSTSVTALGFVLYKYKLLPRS
- ASSAY_NAME: Monoamine Oxidase-A Inhibitor Screening Kit (Merck, MAK295), fluorometric assay
- Format: biochemical
- CONDITIONS: concentration 10 uM
- Experimental: The experimental details for determining IC50 are presented in Supporting Information B. To evaluate the IC50 of inhibitors, two fluorometric assays were used: the Monoamine Oxidase-A Inhibitor Screening Kit and the Monoamine Oxidase-B Inhibitor Screening Kit (Merck), according to the manufacturer’s protocol. […] The fluorescence intensity was measured using a plate reader (BioTek Synergy H1) with the following settings: excitation at 535 nm and emission at 587 nm. […]

COMPOUND	UNIT_ABBREV	inhibition at 10 µM
O=C(Nc1ccc(Cl)cc1)C1=Cc2ccccc2OC1 [MolPort-000-686-585]	%	0
O=c1oc2cc(OCc3cccc(Cl)c3)ccc2c2c1CCC2 [MolPort-000-651-742]	%	0
Cc1nc(Nc2ncc3c(n2)CC(C)CC3=O)nc2ccccc12 (stereo not drawn) [MolPort-000-510-622]	%	0
